- procedureText: HILIC, Waters ACQUITY UPLC BEH Amide, 100 × 2.1 mm, 1.7 µm; A: water + 0.125% formic acid + 10 mM ammonium formate; B: 5% water + 95% acetonitrile + 0.125% formic acid + 10 mM ammonium formate; gradient (min/%B) 0/100 2/100 7.7/70 9.5/40 10.25/30 12.75/100 17/100
- setupConditions: stereoisomer not certain
# LC retention time annotations
Report as a plain number; the unit min is understood.

A selection of reference data follows.
| compound | LC retention time [min] |
| --- | --- |
| NCC(=O)O | 8.33 |
| CC(C)C1=CC2=CCC3C(C)(C(=O)O)CCCC3(C)C2CC1 (stereo unspecified) | 1.11 |
| C[n+]1cccc(C(N)=O)c1 [1-Methylnicotinamide] | 6.26 |

Query: Look at this compound and give its reported LC retention time. O=C1CCNC(=O)N1 [5,6-Dihydrouracil]
Response: 1.77

Query: Look at this compound and give its reported LC retention time. CCCCCCCCC=CCCCCCCCCCCCC(N)=O [Erucamide]
Response: 1.06

Query: Look at this compound and give its reported LC retention time. O=c1ccn(C2OC(CO)C(O)C2O)c(=O)[nH]1 (stereo unspecified)
Response: 4.72

Query: Look at this compound and give its reported LC retention time. NC(CSCC(=O)O)C(=O)O (stereo unspecified)
Response: 9.04

Query: Look at this compound and give its reported LC retention time. CC(=O)OCC=C(C)CCC=C(C)C [Nerylacetate]
Response: 0.99

Data provenance is the RepoRT retention time repository.
